The reported numbers originate from paper PMC6854942.

Kindly supply the reported MRT last values for the records listed here.
assay: Pharmacokinetic study in rats after oral administration of B. striata extract (UPLC-MS/MS of plasma); assay type: in vivo, Sprague-Dawley rats; conditions: Sprague-Dawley; oral administration of B. striata extract 22.2 g/kg, rat plasma, n = 6; read-out: MRT0–t
# output: numeric value plus its unit

Entry CC(C)C[C@@](O)(CC(=O)OCc1ccc(O[C@@H]2O[C@H](CO)[C@@H](O)[C@H](O)[C@H]2O)cc1)C(=O)OCc1ccc(O[C@@H]2O[C@H](CO)[C@@H](O)[C@H](O)[C@H]2O)cc1 , MRT last reported as 5.62 h

Entry CC(C)C[C@@](O)(CC(=O)O)C(=O)O , MRT last reported as 15.6 h

Entry CC(C)C[C@@](O)(CC(=O)O)C(=O)OCc1ccc(O[C@@H]2O[C@H](CO)[C@@H](O)[C@H](O)[C@H]2O)cc1 [Gymnoside I, gymnoside I] , MRT last reported as 12.4 h

====

test: Pharmacokinetic study in rats after intravenous administration of B. striata extract (UPLC-MS/MS of plasma); format: in vivo, Sprague-Dawley rats; details: Sprague-Dawley; intravenous administration of B. striata extract 1.64 g/kg, rat plasma, n = 6; read-out: MRT0–t
Kindly supply the reported MRT last values for the records listed here.
Write the answer as a number in min, unit excluded.

Entry CC(C)C[C@@](O)(CC(=O)OCc1ccc(O[C@@H]2O[C@H](CO)[C@@H](O)[C@H](O)[C@H]2O)cc1)C(=O)OCc1ccc(O[C@@H]2O[C@H](CO)[C@@H](O)[C@H](O)[C@H]2O)cc1 , MRT last reported as 21.6

Entry CC(C)C[C@@](O)(CC(=O)O)C(=O)O , MRT last reported as 27

Entry CC(C)C[C@@](O)(CC(=O)O)C(=O)OCc1ccc(O[C@@H]2O[C@H](CO)[C@@H](O)[C@H](O)[C@H]2O)cc1 [Gymnoside I, gymnoside I] , MRT last reported as 40.8

====

assay: Pharmacokinetic study in rats after oral administration of B. striata extract (UPLC-MS/MS of plasma); assay type: in vivo, Sprague-Dawley rats; settings: Sprague-Dawley, rat, plasma, po, 22.2 g/kg, oral administration of B. striata extract 22.2 g/kg, rat plasma, n = 6
assay-readout: Tmax (h)
Write the answer as a number in h, unit excluded.

Entry CC(C)C[C@@](O)(CC(=O)O)C(=O)O [α-Isobutylmalic acid] , Tmax reported as 6.44

====

Kindly supply the reported bioavailability values for the records listed here.
assay: Pharmacokinetic study in rats after oral administration of B. striata extract (UPLC-MS/MS of plasma); type: in vivo, Sprague-Dawley rats; conditions: Sprague-Dawley, rat, plasma; rats; AUC0−t oral (22.2 g/kg extract) vs i.v. (1.64 g/kg extract), dose-corrected; read-out: Bioavailability (absolute)
Write the answer as a number in %, unit excluded.

Entry CC(C)C[C@@](O)(CC(=O)OCc1ccc(O[C@@H]2O[C@H](CO)[C@@H](O)[C@H](O)[C@H]2O)cc1)C(=O)OCc1ccc(O[C@@H]2O[C@H](CO)[C@@H](O)[C@H](O)[C@H]2O)cc1 [Militarine, militarine] , bioavailability reported as 0.6

Entry CC(C)C[C@@](O)(CC(=O)O)C(=O)OCc1ccc(O[C@@H]2O[C@H](CO)[C@@H](O)[C@H](O)[C@H]2O)cc1 [Gymnoside I, gymnoside I] , bioavailability reported as 9.8
